# Plant response rating, Corn annotations
test system: corn (Zea mays); experiment: Test A postemergence corn; type: in vivo; conditions: 500 g ai/ha, 0 to 100 scale, 0 is no effect, 100 is complete control
READOUT LABEL: Plant response rating, Corn

>  <COMPOUND>
O=C1NCCC(c2ccc(C(F)(F)F)cc2)C1C(=O)Nc1ccccc1C(F)(F)F (racemic)

>  <RECORDED MEASUREMENT>
0

$$$$
>  <COMPOUND>
O=C1NCC[C@@H](c2cccc(C(F)(F)F)c2)[C@@H]1C(=O)Nc1cccc(Cl)c1F

>  <RECORDED MEASUREMENT>
30

$$$$
>  <COMPOUND>
O=C1NCC[C@@H](c2ccc(C(F)(F)F)cc2)[C@@H]1C(=O)Nc1cccc(F)c1F

>  <RECORDED MEASUREMENT>
20

$$$$
>  <COMPOUND>
O=C1NCCC(c2cccc(C(F)(F)F)c2)C1C(=O)Nc1ccc(F)c(F)c1F (racemic)

>  <RECORDED MEASUREMENT>
60

$$$$
>  <COMPOUND>
O=C1NCC[C@@H](c2cccc(C(F)(F)F)c2)[C@@H]1C(=O)Nc1cccc(F)c1F

>  <RECORDED MEASUREMENT>
20

$$$$
>  <COMPOUND>
O=C1NCCC(c2cccc(OC(F)F)c2)C1C(=O)Nc1ccc(F)c(F)c1F (racemic)

>  <RECORDED MEASUREMENT>
0

$$$$
>  <COMPOUND>
O=C1NCCC(c2cccc(C(F)(F)F)c2)C1C(=O)Nc1ccc(F)cc1F (racemic)

>  <RECORDED MEASUREMENT>
0

$$$$
>  <COMPOUND>
O=C1NCCC(c2cccc(C(F)(F)F)c2)C1C(=O)Nc1ccccc1Cl (racemic)

>  <RECORDED MEASUREMENT>
0

$$$$
